The reported measurements were obtained from the RNAGym collection of RNA variant scans (doi:10.1126/science.aae0568).

B1: tRNA (parent)
chain: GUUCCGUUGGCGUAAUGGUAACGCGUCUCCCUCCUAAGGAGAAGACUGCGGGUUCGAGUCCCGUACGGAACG

variants of: B1; test: yeast fitness relative to wild type (ratio to wild type); higher = fitter; tRNA-Arg(CCU), competitive growth, 37 C, YPD
Variants at the floor of the assay were thinned out.
Each entry gets NO if its yeast fitness stays under 0.7, and YES if its yeast fitness is 0.7 or above.

Below are worked cases with known answers.
| MUTANT ID | ASSIGNED CLASS |
| --- | --- |
| C4U A40G U64C | YES |
| C5A U13C C29U G56C | NO |
| U13G A20U A65C | NO |
| U3A G56A | YES |
| G6A G44A | YES |

Q) Please check the record U2G A42C U47A A65U and state if its yeast fitness is at or above 0.7.
A) NO

Q) Could you tell me if the measured yeast fitness of C5A C33A G38A A45C G52A U54G G67A reaches 0.7 or more?
A) NO

Q) For this variant, is measured yeast fitness 0.7 or higher? A20G C33G G56A A65C
A) NO

Q) Answer whether yeast fitness of G9C A20C C66A is greater than or equal to 0.7.
A) NO

Q) Has G12C G48A C66U a recorded yeast fitness greater than or equal to 0.7?
A) YES

Q) In plain terms: is recorded yeast fitness at least 0.7 for U8G G9C G68A ?
A) NO

Q) Reported yeast fitness at or above 0.7? G12A U13C U26C G51A
A) NO

Q) Identify whether the reported yeast fitness of the following variant is 0.7 or greater: A42C A45G G51A
A) NO

Q) Quick check: does C4A G9C C11G A21C C55U C62U G67C have yeast fitness greater than or equal to 0.7?
A) NO

Q) Does the reported yeast fitness for U13A A45G A65C fall at or above the 0.7 mark?
A) NO

Q) hey, is yeast fitness for this one >= 0.7? C5A U35C G44A G48C C55G
A) NO

Q) Does the reported yeast fitness for C27G A43G A70G fall at or above the 0.7 mark?
A) NO

Q) Could you tell me if the measured yeast fitness of G9C C27U C33G A37G C66U reaches 0.7 or more?
A) NO

Q) Does U2C A20C G68A have a reported yeast fitness of at least 0.7?
A) NO

Q) Could you please find out whether C4A C5G A20G U54A C62U has yeast fitness that meets 0.7 or exceeds it?
A) NO

Q) Given the entry U16C A20U U32C , answer whether its yeast fitness meets or surpasses 0.7.
A) NO

Q) Identify whether the reported yeast fitness of the following variant is 0.7 or greater: C11U A37C G56A
A) NO

Q) Can U2A U8C A15G be said to have yeast fitness at or above 0.7?
A) NO
